Listed here: items and their measured TGI.
system: CAKI-1 renal; assay: NCI tumour cell line growth inhibition, 48 h
metric.name: TGI

compound	endpoint.result
Cc1ccc(S(=O)(=O)NC(=O)Nc2nnc(S(N)(=O)=O)s2)cc1	> 100 µM
[N-]=[N+]=Nc1c(Cc2ccccc2)c(Cl)nc2ccccc12	92.3 µM
CCOc1ccccc1CCN=C1NC(=O)/C(=C/c2ccc3ncccc3c2)S1	> 7.13 µM
C=CCOC(=O)N1c2ccc(O[Si](C)(C)C(C)(C)C)cc2[C@@]23O[C@@]24[C@@H]1C#C/C=C\C#C[C@]3(O)C(OC)(OC)C[C@@H]4C	> 100 µM
CC1=NNC(=O)C1C1C(=O)NN=C(c2c[nH]c3ccccc23)C1Br (stereo not drawn)	> 100 µM
COC(=O)Cc1cc(O)c2c(c1O)C(=O)c1ccccc1C2=O	> 100 µM
CC1CC[C@@]2(OC1)OC1C[C@H]3[C@@H]4CC=C5CC(OC6OC(CO)C(OC7OC(CO)C(O)C(OC8OCC(O)C(O)C8O)C7OC7OC(CO)C(OC8OC(C)C(OC9OC(C)C(O)C(O)C9O)C(O)C8O)C(O)C7O)C(O)C6O)CCC5(C)[C@H]4CCC3(C)C1[C@@H]2C (stereo partly drawn)	15.3 µM
O=c1[nH]c(Nc2ccccc2)nc2c1ncn2CC(O)CSCCO (stereo not drawn)	> 100 µM
